target: Kv7.2 (Homo sapiens); construct: expressed in transfected cells; assay: Activation of Kv7.2 (in vitro assay, concentration response curve); type: cell-based; details: activation of Kv7.2
READOUT KIND: pEC50
Note on units: pEC50 is unitless, being -log10 of a concentration expressed in mol/L.

Use the examples below as a reference point.
[[record]]
compound = "O=C(NCc1ccnc(C(F)(F)F)c1)NC12CC(F)(C1)C2"
recorded_number = 5.14

[[record]]
compound = "O=C(NCc1ccnc(OC(F)F)c1)N[C@@H]1CC[C@H](OC(F)(F)F)C1"
recorded_number = 6.60


Can you look up the measured pEC50 of `O=C(NCc1ccnc(OC(F)F)c1)N[C@H]1C[C@H](F)C1` for me?
5.73

Request: `O=C(NCc1ccnc(OCF)c1)Nc1cccc(Cl)c1`
5.76

Request: O=C(NCc1ccnc(OC(F)F)c1)N[C@@H]1CCC[C@H](C(F)(F)F)C1 (racemic) [Example 138]
7.00

Request: O=C(NCc1ccnc(OC(F)F)c1)NC12CCC(F)(CC1)CC2O (stereo not drawn)
5.99

Request: `O=C(NCc1ccnc(CC(F)(F)F)c1)Nc1cccc(Cl)c1`
6.26

Request: `O=C(NCc1ccnc(OC(F)F)c1)N[C@@H]1CC[C@H]2CCC[C@H]21`
7.70

Request: `O=C(NCc1ccnc(OC(F)F)c1)NC1CCC(F)(F)CC1`
6.74

====

target: Kv7.2 (Homo sapiens, UniProt O43526); experiment: Activation of Kv7.2 (in vitro assay, concentration response curve); details: activation of Kv7.2
READOUT KIND: pEC50
Note on units: pEC50 is unitless, being -log10 of a concentration expressed in mol/L.

[[record]]
compound = "CCC1CC(NC(=O)NCc2ccnc(OC(F)F)c2)C1 (stereo not shown)"
readout_kind = "pEC50"
recorded_number = 6.85


Recall the recorded pEC50 for O=C(NCc1ccnc(OC(F)F)c1)NC1CCOC(C(F)(F)F)C1 (stereo not shown) with Kv7.2 (Homo sapiens, UniProt O43526) and state it.
5.61

Request: `O=C(NCc1ccnc(OC(F)F)c1)N[C@@H]1CCOc2ccccc21`
6.89

Request: C[C@@H](O)C(NC(=O)N[C@H]1C[C@H](C(F)(F)F)C1)c1ccnc(OC(F)F)c1 (stereo partly shown)
6.26

====

biological target: Kv7.2 (Homo sapiens); construct: expressed in transfected cells; assay: Activation of Kv7.2 (in vitro assay, concentration response curve); format: cell-based; conditions: Kv7.2 activation max %
READOUT KIND: Emax (%)
The reply should contain only the number, in %.

Use the examples below as a reference point.
[[record]]
molecule = "O=C(NCc1ccnc(OC(F)F)c1F)N[C@H]1C[C@H](C(F)(F)F)C1"
recorded_number = 48

[[record]]
molecule = "O=C(NCc1ccnc(OCC(F)CF)c1)NC12CC(F)(C1)C2 (centres unmarked)"
recorded_number = 50

[[record]]
molecule = "O=C(NCc1ccnc(OC(F)F)c1)N[C@@H]1CC[C@@H](C(F)(F)F)C1 (single isomer, unassigned)"
recorded_number = 75


Recall the recorded Emax for `O=C(NCc1ccnc(OC(F)F)c1)N[C@@H](C(F)F)C1CC(F)(F)C1` with Kv7.2 (Homo sapiens) and state it.
55

Request: O=C(Nc1cc(F)cc(F)c1)NC(CO)c1ccnc(OCC(F)(F)F)c1 (centres unmarked)
84
